Tested on: human NAMPT (Homo sapiens (Human))
Experimental details: NMN fluorescence biochemical assay (human recombinant NAMPT enzyme assay)
Assay readout: AC1.4 Human (µM)

Known AC1.4 Human results, listed for orientation:
CC(C)Cn1nccc1C(=O)NCc1ccc(NC(=O)OCc2ccc(Cl)cc2)cc1	4.86
O=C(Nc1ccc(C2CCS(=O)(=O)CC2)cc1)OCc1ccc(Cl)cc1	1.25
COCCN1CCC(c2ccc(NC(=O)OCc3cnco3)cc2)CC1	14.47
CC(C)C(=O)N1CC2(CC(Cc3ccc(NC(=O)OCc4cnco4)cc3F)C2)C1	0.15
CC(=O)N1CCC(Cc2ccc(NC(=O)OCc3cnco3)cc2)CC12CC2 (stereo not drawn)	0.13
CC1CN(C(=O)N[C@@H](C)c2ccc(NC(=O)OCc3ccc(Cl)cc3)cc2)C1	1.18

I: C[C@H](NC(=O)C1CCOCC1)c1ccc(NC(=O)OCc2ccc(Cl)cc2)cc1
II: O=C(Nc1ccc(Cc2ccccn2)cc1)OCc1ccc(Cl)cc1
Data request: Between item I and item II , which reported AC1.4 Human is smaller? Lab log: write the label of the selected item as the result.
Data returned: I

A: CS(=O)(=O)N1CCC(Cc2ccc(NC(=O)OCc3cnco3)cc2)C2CC21 (stereo not drawn)
B: COc1nc(C)ccc1C(=O)NCc1ccc(NC(=O)OCc2ccc(Cl)cc2)cc1
Data request: Between item A and item B , which reported AC1.4 Human is smaller? Lab log: write the label of the selected item as the result.
Data returned: A
(A: 0.35 µM, B: 2.39 µM)

1: CS(=O)(=O)N1CCC(Cc2ccc(NC(=O)OCc3cnco3)cc2)CC1
2: CN(Cc1ccc(NC(=O)OCc2ccc(Cl)cc2)cc1)C(=O)c1ccncc1F
Data request: Between the two listed entries 1 and 2 , which has its AC1.4 Human at the higher number? Lab log: write the label of the selected item as the result.
Data returned: 2

P: Cn1nc(C(F)F)cc1C(=O)NCc1ccc(NC(=O)OCc2ccc(Cl)cc2)cc1
Q: O=C(Nc1ccc(CNC(=O)c2ccncc2F)cc1)OCc1ccc(Cl)cc1
R: O=C(Nc1ccc(CNC(=O)c2ccc(C(F)F)nc2)cc1)OCc1ccc(Cl)cc1
Data request: Order these by AC1.4 Human, descending, and give the full ranking. Enter labels, ranked according to the request.
Data returned: P, R, Q
(P: 13.49 µM, R: 1.59 µM, Q: 0.65 µM)

----------
Tested on: human NAMPT (Homo sapiens (Human), UniProt P43490)
Sequence (P43490 whole entry): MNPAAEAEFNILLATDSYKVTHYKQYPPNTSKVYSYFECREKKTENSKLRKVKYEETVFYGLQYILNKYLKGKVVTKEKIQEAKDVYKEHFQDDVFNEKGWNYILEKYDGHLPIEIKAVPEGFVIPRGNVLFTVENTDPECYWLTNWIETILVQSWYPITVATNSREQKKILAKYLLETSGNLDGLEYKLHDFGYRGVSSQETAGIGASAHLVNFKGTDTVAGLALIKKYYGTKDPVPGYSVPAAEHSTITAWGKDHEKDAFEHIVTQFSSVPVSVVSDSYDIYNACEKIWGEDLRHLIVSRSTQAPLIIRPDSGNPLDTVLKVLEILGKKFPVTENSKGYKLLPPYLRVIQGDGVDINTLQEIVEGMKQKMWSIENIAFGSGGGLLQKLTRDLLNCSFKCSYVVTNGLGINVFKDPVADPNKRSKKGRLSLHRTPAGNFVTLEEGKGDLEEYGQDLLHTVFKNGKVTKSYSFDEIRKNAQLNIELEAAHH
Experimental details: NMN fluorescence biochemical assay (human recombinant NAMPT enzyme assay)
pEC50: −log10 of the molar value.
Assay readout: pEC50

a: O=C(Nc1ccc(CN2CCC[C@@H]2c2cccnc2)cc1)OCc1ccc(CO)cc1
b: COC(=O)N1CCC(Cc2ccc(NC(=O)OCc3cnco3)cc2)CC1
c: C[C@H](NC(=O)c1ccc(C(F)F)nc1)c1ccc(NC(=O)OCc2ccc(Cl)cc2)cc1
Data request: Arrange items by their pEC50 values in increasing order. Enter labels, ranked according to the request.
Data returned: b, c, a
(b: 4.65, c: 5.80, a: 6.54)

----------
Tested on: UniProt:P43490
Experimental details: NMN fluorescence biochemical assay (human recombinant NAMPT enzyme assay)
Assay readout: AC1.4 Human (µM)

Known AC1.4 Human results, listed for orientation:
Cc1n[nH]c(C)c1C(=O)N(C)Cc1ccc(NC(=O)OCc2ccc(Cl)cc2)cc1	1.85
Cc1ccc(NC(=O)Cc2ccc(NC(=O)OCc3ccc(Cl)cc3)cc2)cn1	1.77
C[C@H](NC(=O)N1CCC1)c1ccc(NC(=O)OCc2ccc(Cl)cc2)cc1	0.75

1: CO[C@H]1CC[C@@H](NC(=O)Cc2ccc(NC(=O)OCc3ccc(Cl)cc3)cc2)CC1
2: O=C(Nc1ccc(CC2C3CCC2CNC3)cc1)OCc1cnco1 (centres unmarked)
Data request: Between item 1 and item 2 , which reported AC1.4 Human is smaller? Lab log: write the label of the selected item as the result.
Data returned: 2

Every entry's value here was drawn from patent US20240279215A1.
